Where these numbers come from: patent US20220306585A1

# Experimental protocol: Degradation of prodrugs and release of parent drug in dog plasma
# Assay type: in vitro ADME
# Settings: male, Beagle, dog plasma (EDTA stabilized), 37° C., 4 h, percent area of prodrug at t0
# Protocol: Measurement of Release of Parent Drug in Dog Plasma 1 mg of the test compound was dissolved in 0.5 mL acetonitrile/dimethylsulfoxide 9:1. For complete dissolution the HPLC vial was shaken and treated with ultrasound. […] The supernatant was analysed by HPLC (Method 8) to determine the amount of the test compound. In addition, the reaction mixture was analysed by method 9 (HPLC-MS) at the final timepoint. Both decrease of the prodrug concentration and increase of parent drug concentration were monitored. […]
Measured parameter: recovery at 4 h, 39 µg/mL (%)

INSERT INTO assay_data (smiles_string, measured_parameter, measurement) VALUES
  ('N#CC1(N(COC(=O)/C=C/C(=O)O)C(=O)c2cc(-c3cnn(-c4c(Cl)cc(C(F)(C(F)(F)F)C(F)(F)F)cc4OC(F)(F)F)c3)ccc2Cl)CC1', 'recovery at 4 h, 39 µg/mL', 0);

---

# Experimental protocol: Measurement of stability of prodrugs in buffer at pH 7.4
# Type: physicochemical
# Settings: PBS buffer pH 7.4, 37° C., HPLC peak area, read-out: % Recovery after 24 h (stability at pH 7.4)
Measured parameter: recovery at 24 h, 0.1 mg/mL (%)

INSERT INTO assay_data (smiles_string, measured_parameter, measurement) VALUES
  ('Cn1nc(C(F)(F)C(F)(F)F)c(C(F)(F)F)c1-n1cc(-c2ccc(Cl)c(C(=O)N(COC(=O)CCC(=O)O)C3(C#N)CC3)c2)cn1', 'recovery at 24 h, 0.1 mg/mL', 90),
  ('N#CC1(N(COC(=O)CCCC(=O)O)C(=O)c2cc(-c3cnn(-c4c(Cl)cc(C(F)(C(F)(F)F)C(F)(F)F)cc4OC(F)(F)F)c3)ccc2Cl)CC1', 'recovery at 24 h, 0.1 mg/mL', 100),
  ('N#CC1(N(COC(=O)CCC(=O)O)C(=O)c2cc(-c3cnn(-c4c(Cl)cc(C(F)(C(F)(F)F)C(F)(F)F)cc4OC(F)(F)F)c3)ccc2Cl)CC1', 'recovery at 24 h, 0.1 mg/mL', 95),
  ('Cn1nc(C(F)(F)C(F)(F)F)c(C(F)(F)F)c1-n1cc(-c2ccc(Cl)c(C(=O)N(COC(=O)C3(C(=O)O)CC3)C3(C#N)CC3)c2)cn1', 'recovery at 24 h, 0.1 mg/mL', 71);

---

# Experimental protocol: Degradation of prodrugs and release of parent drug in rat plasma
# Assay type: in vitro ADME
# Settings: male, Hannover-Janvier RjHan, rat plasma (Li-heparin), 37° C., 0.5 h, percent area of prodrug at t0
compounds and their reported recovery at 0.5 h, 39 µg/mL
Measured parameter: recovery at 0.5 h, 39 µg/mL (%)

INSERT INTO assay_data (compound, measured_parameter, measurement) VALUES
  ('Cn1nc(C(F)(F)C(F)(F)F)c(C(F)(F)F)c1-n1cc(-c2ccc(Cl)c(C(=O)N(COC(=O)[C@H]3CC[C@H](C(=O)O)CC3)C3(C#N)CC3)c2)cn1 [Example 12]', 'recovery at 0.5 h, 39 µg/mL', 70),
  ('N#CC1(N(COC(=O)CCCC(=O)O)C(=O)c2cc(-c3cnn(-c4c(Cl)cc(C(F)(C(F)(F)F)C(F)(F)F)cc4OC(F)(F)F)c3)ccc2Cl)CC1 [Example 9]', 'recovery at 0.5 h, 39 µg/mL', 77),
  ('N#CC1(N(COC(=O)Cc2ccc(C(=O)O)cc2)C(=O)c2cc(-c3cnn(-c4c(Cl)cc(C(F)(C(F)(F)F)C(F)(F)F)cc4OC(F)(F)F)c3)ccc2Cl)CC1 [Example 15]', 'recovery at 0.5 h, 39 µg/mL', 81),
  ('N#CC1(N(COC(=O)CCC(=O)O)C(=O)c2cc(-c3cnn(-c4c(Cl)cc(C(F)(C(F)(F)F)C(F)(F)F)cc4OC(F)(F)F)c3)ccc2Cl)CC1 [Example 8]', 'recovery at 0.5 h, 39 µg/mL', 95),
  ('Cn1nc(C(F)(F)C(F)(F)F)c(C(F)(F)F)c1-n1cc(-c2ccc(Cl)c(C(=O)N(COC(=O)/C=C/C(=O)O)C3(C#N)CC3)c2)cn1 [Example 7]', 'recovery at 0.5 h, 39 µg/mL', 58),
  ('Cn1nc(C(F)(F)C(F)(F)F)c(C(F)(F)F)c1-n1cc(-c2ccc(Cl)c(C(=O)N(COC(=O)C3CC3C(=O)O)C3(C#N)CC3)c2)cn1 (centres unmarked) [Example 1]', 'recovery at 0.5 h, 39 µg/mL', 88),
  ('Cn1nc(C(F)(F)C(F)(F)F)c(C(F)(F)F)c1-n1cc(-c2ccc(Cl)c(C(=O)N(COC(=O)c3ccc(C(=O)O)cc3)C3(C#N)CC3)c2)cn1 [Example 10]', 'recovery at 0.5 h, 39 µg/mL', 98),
  ('N#CC1(N(COC(=O)c2ccc(C(=O)O)cc2)C(=O)c2cc(-c3cnn(-c4c(Cl)cc(C(F)(C(F)(F)F)C(F)(F)F)cc4OC(F)(F)F)c3)ccc2Cl)CC1 [Example 3]', 'recovery at 0.5 h, 39 µg/mL', 100),
  ('N#CC1(N(COC(=O)[C@H]2CC[C@H](C(=O)O)CC2)C(=O)c2cc(-c3cnn(-c4c(Cl)cc(C(F)(C(F)(F)F)C(F)(F)F)cc4OC(F)(F)F)c3)ccc2Cl)CC1 [Example 11]', 'recovery at 0.5 h, 39 µg/mL', 96),
  ('N#CC1(N(COC(=O)/C=C/C(=O)O)C(=O)c2cc(-c3cnn(-c4c(Cl)cc(C(F)(C(F)(F)F)C(F)(F)F)cc4OC(F)(F)F)c3)ccc2Cl)CC1 [Example 13]', 'recovery at 0.5 h, 39 µg/mL', 85),
  ('Cn1nc(C(F)(F)C(F)(F)F)c(C(F)(F)F)c1-n1cc(-c2ccc(Cl)c(C(=O)N(COC(=O)CCCC(=O)O)C3(C#N)CC3)c2)cn1 [Example 4]', 'recovery at 0.5 h, 39 µg/mL', 42);
